Provide the recorded IC50 for the entries that follow.
# assay_target: neutrophil collagenase (MMP-8) (Homo sapiens)
# Construct: enzymatic activity of the catalytic domains of human stromelysin and of neutrophil collagenase
# Sequence (P22894 100-262 limits assumed): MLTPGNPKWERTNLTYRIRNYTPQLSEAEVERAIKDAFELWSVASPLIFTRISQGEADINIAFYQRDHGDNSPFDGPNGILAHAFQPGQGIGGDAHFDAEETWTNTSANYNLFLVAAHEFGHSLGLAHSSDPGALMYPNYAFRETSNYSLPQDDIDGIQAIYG
# method_description: Enzyme inhibition of the catalytic domain of neutrophil collagenase (fluorogenic substrate)
# experimental_conditions: 15 min preincubation, pH=6.5, fluorescence 328 nm (ex)/393 nm (em)
Number only, in nM; omit the unit.

Entry CN(C)c1ccc(C(=O)NCCC[C@H](NS(=O)(=O)c2ccc(-c3ccc(Cl)cc3)cc2)C(=O)O)cc1 [Example 136] : reported IC50 = ?
7

Further, for O=C(CC(C(=O)O)c1ccccc1)NCCC[C@H](NS(=O)(=O)c1ccc(-c2ccc(Cl)cc2)cc1)C(=O)O (some centres unmarked) [Example 55] ?
3

Consider next the compound O=C(O)[C@H](CCCN1Cc2ccccc2C1=O)NS(=O)(=O)c1ccc(-c2ccc(Cl)cc2)cc1 [Example 34] in the same way.
2

Same for O=C(NCCC[C@H](NS(=O)(=O)c1ccc(-c2ccc(Cl)cc2)cc1)C(=O)O)c1ccc(F)cc1 [Example 71]
3

Here is the next compound: O=C(O)[C@H](CCCNC(=O)N1CCCC1)NS(=O)(=O)c1ccc(-c2ccc(Cl)cc2)cc1 [Example 143]
2

Same for O=C(O)[C@H](CCN1C(=O)c2ccccc2C1=O)NS(=O)(=O)c1ccc(-c2ccccc2)cc1 [Example 28]
6

Please do the same for O=C(Cc1ccc(Cl)cc1)NCCC[C@H](NS(=O)(=O)c1ccc(-c2ccc(Cl)cc2)cc1)C(=O)O [Example 89] as well.
10

Quick one: O=C(NCCC[C@H](NS(=O)(=O)c1ccc(-c2ccc(Cl)cc2)cc1)C(=O)O)NS(=O)(=O)c1ccccc1 [Example 5]
4

Same question for CCCCOc1ccc(C(=O)NCCC[C@H](NS(=O)(=O)c2ccc(-c3ccc(Cl)cc3)cc2)C(=O)O)cc1 [Example 106] please.
30

Similarly, O=C(NCCC[C@H](NS(=O)(=O)c1ccc(-c2ccc(Cl)cc2)cc1)C(=O)O)c1ccc(Cc2ccccc2)cc1 [Example 103] ?
60

Quick one: O=C(NCCC[C@H](NS(=O)(=O)c1ccc(-c2ccc(Cl)cc2)cc1)C(=O)O)c1ccncc1 [Example 127]
3

And then O=C(CCc1ccccc1)NCCC[C@H](NS(=O)(=O)c1ccc(-c2ccc(Cl)cc2)cc1)C(=O)O [Example 133] , what is it?
2

What about this compound? COc1ccc(S(=O)(=O)NCCC[C@H](NS(=O)(=O)c2ccc(-c3ccc(Cl)cc3)cc2)C(=O)O)cc1 [Example 56]
8

Likewise for Cc1oncc1C(=O)NCCCC[C@@H](NS(=O)(=O)CCc1ccc(-c2ccccc2)cc1)C(=O)O [Example 168] ?
20

What do you have for O=C(O)[C@H](CCCN1C(=O)c2ccccc2C1=O)NS(=O)(=O)c1ccc(-c2ccc(Cl)cc2)cc1 [Example 32] ?
2

Next entry: O=C(NCCC[C@H](NS(=O)(=O)c1ccc(-c2ccc(Cl)cc2)cc1)C(=O)O)c1cccc(F)c1F [Example 97]
4

What do we get for O=C(NCCC[C@H](NS(=O)(=O)c1ccc(-c2ccc(Cl)cc2)cc1)C(=O)O)c1cccs1 [Example 122] ?
2

How about O=C(NCCC[C@H](NS(=O)(=O)c1ccc(-c2ccc(Cl)cc2)cc1)C(=O)O)c1ccc2ccccc2c1 [Example 110] ?
20

Now the same for Cc1oncc1C(=O)NCCC[C@@H](NS(=O)(=O)c1ccc(-c2ccc(Cl)cc2)cc1)C(=O)O [Example 20]
7

// same read-out, input: O=C(O)C(CCN1C(=O)c2ccccc2C1=O)NS(=O)(=O)c1ccc(-c2ccc(Cl)cc2)cc1 (racemic) [Example 29]
3

Follow-up item: O=C(CCCc1ccccc1)NCCC[C@H](NS(=O)(=O)c1ccc(-c2ccc(Cl)cc2)cc1)C(=O)O [Example 157]
7

For CC(C)(C)OC(=O)NCCCC[C@@H](NS(=O)(=O)c1ccc(-c2ccc(Cl)cc2)cc1)C(=O)O [Example 2] then?
6

And CC(=O)NCCCC[C@@H](NS(=O)(=O)CCc1ccc(-c2ccccc2)cc1)C(=O)O [Example 9] ?
70

Next compound: O=C(NCCC[C@H](NS(=O)(=O)c1ccc(-c2ccc(Cl)cc2)cc1)C(=O)O)c1cccc(C(F)(F)F)c1 [Example 130]
4

Please answer likewise for Cn1cccc1C(=O)NCCC[C@H](NS(=O)(=O)c1ccc(-c2ccc(Cl)cc2)cc1)C(=O)O [Example 154]
9

Lookup CN(C)c1ccccc1C(=O)NCCC[C@H](NS(=O)(=O)c1ccc(-c2ccc(Cl)cc2)cc1)C(=O)O [Example 137]
7

And what about the compound CN(C)c1ccc(-c2ccc(S(=O)(=O)N[C@@H](CCCNC(=O)OC(C)(C)C)C(=O)O)cc2)cc1 [Example 59] ?
1

Ok, now COc1cccc(OC)c1C(=O)NCCC[C@H](NS(=O)(=O)c1ccc(-c2ccc(Cl)cc2)cc1)C(=O)O [Example 139]
20

Proceed to O=C(NCCC[C@H](NS(=O)(=O)c1ccc(-c2ccc(Cl)cc2)cc1)C(=O)O)c1cccc(Cl)c1 [Example 91]
5
